# Target System: Bcl-2-like protein 2 (Homo sapiens)
# Sequence (Q92843 whole entry): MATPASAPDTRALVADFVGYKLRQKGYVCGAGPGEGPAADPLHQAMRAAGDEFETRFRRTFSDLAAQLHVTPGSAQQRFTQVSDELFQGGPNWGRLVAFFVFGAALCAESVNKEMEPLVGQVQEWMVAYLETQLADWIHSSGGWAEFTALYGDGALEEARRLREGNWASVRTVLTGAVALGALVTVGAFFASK
Quick reference: Ki of the listed items.
Field format: number, assumed µM, no unit text.

[
  {
    "Structure String": "CN(CC(=O)Nc1ccc(N2CCSCC2)c([N+](=O)[O-])c1)C(=O)c1ccc(-c2ccccc2)cc1",
    "Ki / µM": 13
  },
  {
    "Structure String": "CN(CC(=O)Nc1ccc(N2CCCCC2)c([N+](=O)[O-])c1)C(=O)c1ccc(-c2ccccc2)cc1",
    "Ki / µM": 10.8
  }
]

(Q) Please report the recorded Ki for CN(CC(=O)Nc1ccc(NC23CC4CC(CC(C4)C2)C3)c([N+](=O)[O-])c1)C(=O)c1ccc(-c2ccccc2)cc1 .
(A) 9.43
